Record: pKi reported on human 5-HT2A receptor (Homo sapiens (Human), UniProt P28223).
Sequence (P28223 whole entry): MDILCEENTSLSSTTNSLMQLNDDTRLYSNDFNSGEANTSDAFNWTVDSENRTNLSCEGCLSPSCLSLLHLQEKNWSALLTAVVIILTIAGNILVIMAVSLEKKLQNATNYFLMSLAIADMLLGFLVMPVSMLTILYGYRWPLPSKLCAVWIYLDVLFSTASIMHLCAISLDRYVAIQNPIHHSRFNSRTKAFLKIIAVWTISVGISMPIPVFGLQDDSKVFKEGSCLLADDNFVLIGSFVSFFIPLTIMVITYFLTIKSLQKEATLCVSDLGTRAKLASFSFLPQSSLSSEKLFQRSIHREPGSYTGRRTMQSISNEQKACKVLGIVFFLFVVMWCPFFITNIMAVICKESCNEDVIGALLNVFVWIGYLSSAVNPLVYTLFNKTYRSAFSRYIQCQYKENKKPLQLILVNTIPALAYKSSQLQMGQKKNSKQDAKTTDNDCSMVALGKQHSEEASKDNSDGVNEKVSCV
By convention, pKi is the negative base-10 log of a molar concentration.

compound	reading
Cn1cc2c(n1)CCN(CCN1CCN(c3noc4ccccc34)CC1)C2=O [Example 81]	8.00

Lookup: Please look at this compound and report its pKi: O=c1c2cccnc2ccn1CCN1CCN(c2noc3ccccc23)CC1 [Example 115]
Found: 8.97

Lookup: Look up and report measured pKi for this entry: CC1CN(CCN2CCC(c3noc4ccccc34)CC2)C(=O)c2ccn(C)c21 (stereo not shown) [Example 82]
Found: 9.06

Lookup: Given O=c1c2cnc(C(F)(F)F)cc2ccn1CCN1CCN(c2noc3ccccc23)CC1 [Example 173] , respond with its pKi.
Found: 7.64

Lookup: Determine its reported pKi: O=C1c2ncccc2CCN1CCN1CCN(c2noc3ccc(F)cc23)CC1 [Example 147]
Found: 6.91

Numbers sourced from patent US10745401B2.
